// data source = ChEMBL document CHEMBL1140927

test-protocol: Protein binding in human plasma
Format: ADME, cell-free
condition-details: read-out: PPB (converted)
test-readout: fraction unbound
Numbers only.

Input: Dear colleague, I am looking for the recorded fraction unbound of the following compound: C[C@H]1CN(Cc2ccc(CC(=O)N3CCC(Nc4cccc(F)c4)CC3)cc2)CCN1
Output: 0.17

* * *

Assay read-out IC50; system under study: Cytochrome P450 1A2 (Homo sapiens).
Sequence (P05177 whole entry): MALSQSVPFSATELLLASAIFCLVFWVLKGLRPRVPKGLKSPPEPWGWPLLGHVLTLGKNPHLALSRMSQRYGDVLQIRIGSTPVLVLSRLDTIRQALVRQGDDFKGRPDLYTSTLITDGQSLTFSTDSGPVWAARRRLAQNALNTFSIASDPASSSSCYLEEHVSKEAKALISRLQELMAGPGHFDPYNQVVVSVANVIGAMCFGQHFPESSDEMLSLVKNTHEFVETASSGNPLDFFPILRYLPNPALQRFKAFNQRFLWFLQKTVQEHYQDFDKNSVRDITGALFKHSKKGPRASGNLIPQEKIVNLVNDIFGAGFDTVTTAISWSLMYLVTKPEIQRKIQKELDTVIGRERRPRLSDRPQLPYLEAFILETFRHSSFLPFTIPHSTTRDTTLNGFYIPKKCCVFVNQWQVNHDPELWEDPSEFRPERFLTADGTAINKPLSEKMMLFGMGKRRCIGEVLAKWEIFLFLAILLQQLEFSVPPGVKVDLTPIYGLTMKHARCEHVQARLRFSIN

compound	assay-value
C[C@@H]1CN(Cc2ccc(-c3cccnc3C(=O)N3CCC(Nc4ccc(F)cc4)CC3)cc2)C[C@H](C)N1	> 23 µM

Please turn your attention to the following entry.
Input: Dear colleague, I am looking for the recorded IC50 of the following compound: C[C@H]1CN(Cc2ccc(CC(=O)N3CCC(Nc4cccc(F)c4)CC3)cc2)CCN1 [CAMICINAL]
Output: > 100 µM

* * *

pIC50: −log10 of the molar value.
Assay read-out pIC50; system under study: Cytochrome P450 2C19 (Homo sapiens, UniProt P33261).
Sequence (P33261 whole entry): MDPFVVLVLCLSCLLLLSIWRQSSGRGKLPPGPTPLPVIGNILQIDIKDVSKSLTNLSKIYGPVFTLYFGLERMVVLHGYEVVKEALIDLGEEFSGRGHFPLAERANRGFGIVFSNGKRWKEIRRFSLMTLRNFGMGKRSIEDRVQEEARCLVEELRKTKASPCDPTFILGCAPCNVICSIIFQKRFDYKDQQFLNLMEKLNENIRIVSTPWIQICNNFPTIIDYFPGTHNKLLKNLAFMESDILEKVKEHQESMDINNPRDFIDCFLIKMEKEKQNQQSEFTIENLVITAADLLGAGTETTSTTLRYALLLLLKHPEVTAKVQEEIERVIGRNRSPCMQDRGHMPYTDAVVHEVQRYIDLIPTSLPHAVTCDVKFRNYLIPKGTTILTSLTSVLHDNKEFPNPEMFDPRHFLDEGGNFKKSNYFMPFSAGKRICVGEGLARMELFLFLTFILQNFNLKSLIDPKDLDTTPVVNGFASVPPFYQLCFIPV

chemical-string	pIC50
C[C@@H]1CN(Cc2ccc(-c3cccnc3C(=O)N3CCC(Nc4ccc(F)cc4)CC3)cc2)C[C@H](C)N1	< 4.64

Please turn your attention to the following entry.
Input: Dear colleague, I am looking for the recorded pIC50 of the following compound: C[C@H]1CN(Cc2ccc(CC(=O)N3CCC(Nc4cccc(F)c4)CC3)cc2)CCN1
Output: < 4.00

* * *

subject-of-test: UniProtKB Q12809
Sequence (Q12809 whole entry): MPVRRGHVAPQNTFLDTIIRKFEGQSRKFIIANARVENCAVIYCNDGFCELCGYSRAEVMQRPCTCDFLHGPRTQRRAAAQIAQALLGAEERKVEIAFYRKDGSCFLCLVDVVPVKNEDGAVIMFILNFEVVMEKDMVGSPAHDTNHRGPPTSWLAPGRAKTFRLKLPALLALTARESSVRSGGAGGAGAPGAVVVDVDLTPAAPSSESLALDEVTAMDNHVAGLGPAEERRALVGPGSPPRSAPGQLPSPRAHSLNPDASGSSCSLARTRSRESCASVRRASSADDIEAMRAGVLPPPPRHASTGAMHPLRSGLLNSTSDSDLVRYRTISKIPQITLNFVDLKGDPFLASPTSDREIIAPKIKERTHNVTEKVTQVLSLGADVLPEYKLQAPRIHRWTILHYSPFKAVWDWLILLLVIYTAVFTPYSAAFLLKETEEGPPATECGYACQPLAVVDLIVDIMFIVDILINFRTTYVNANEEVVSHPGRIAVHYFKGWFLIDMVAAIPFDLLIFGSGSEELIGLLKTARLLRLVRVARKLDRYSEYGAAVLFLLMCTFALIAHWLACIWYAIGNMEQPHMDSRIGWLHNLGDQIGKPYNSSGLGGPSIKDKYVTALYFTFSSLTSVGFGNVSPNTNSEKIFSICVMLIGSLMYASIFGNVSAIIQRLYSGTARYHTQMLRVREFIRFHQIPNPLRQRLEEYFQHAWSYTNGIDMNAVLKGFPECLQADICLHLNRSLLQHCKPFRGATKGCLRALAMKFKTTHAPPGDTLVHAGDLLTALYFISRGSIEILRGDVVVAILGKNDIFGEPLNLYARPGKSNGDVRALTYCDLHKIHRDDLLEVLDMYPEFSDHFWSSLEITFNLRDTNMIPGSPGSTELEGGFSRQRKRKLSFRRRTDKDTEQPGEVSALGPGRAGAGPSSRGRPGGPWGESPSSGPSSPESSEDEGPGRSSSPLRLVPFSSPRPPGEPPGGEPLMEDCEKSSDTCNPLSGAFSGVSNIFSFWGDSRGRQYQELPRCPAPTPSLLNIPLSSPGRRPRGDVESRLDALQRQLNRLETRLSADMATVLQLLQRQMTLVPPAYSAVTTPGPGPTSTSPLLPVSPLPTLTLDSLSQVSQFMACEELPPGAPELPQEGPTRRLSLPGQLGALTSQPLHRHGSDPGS
test-readout: IC50 (µM)
One number for each entry, in µM.

Input: Dear colleague, I am looking for the recorded IC50 of the following compound: C[C@H]1CN(Cc2ccc(CC(=O)N3CCC(Nc4cccc(F)c4)CC3)cc2)CCN1 [CAMICINAL]
Output: 15.8

* * *

test-protocol: Oral bioavailability in Beagle dog
Type: ADME, organism-based, Canis lupus familiaris
condition-details: in vivo
test-readout: bioavailability (%)
One number for each entry, in %.

Input: Dear colleague, I am looking for the recorded bioavailability of the following compound: C[C@H]1CN(Cc2ccc(CC(=O)N3CCC(Nc4cccc(F)c4)CC3)cc2)CCN1
Output: 51

* * *

Task for the reader: assign each of the following compounds its reported Intrinsic activity.
subject-of-test: Motilin receptor (Homo sapiens, UniProt O43193)
Sequence (O43193 whole entry): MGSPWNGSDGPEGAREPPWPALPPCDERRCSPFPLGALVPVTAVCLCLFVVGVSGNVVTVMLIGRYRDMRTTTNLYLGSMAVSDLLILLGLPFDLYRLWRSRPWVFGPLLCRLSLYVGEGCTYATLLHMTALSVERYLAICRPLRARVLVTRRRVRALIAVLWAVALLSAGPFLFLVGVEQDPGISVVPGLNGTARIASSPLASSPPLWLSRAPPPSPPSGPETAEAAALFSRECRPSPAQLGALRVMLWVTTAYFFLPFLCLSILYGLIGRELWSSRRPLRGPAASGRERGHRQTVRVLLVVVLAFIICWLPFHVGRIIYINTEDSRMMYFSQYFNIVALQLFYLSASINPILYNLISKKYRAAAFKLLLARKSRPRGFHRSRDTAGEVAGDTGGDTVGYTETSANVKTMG
test-protocol: Intrinsic activity at human recombinant motilin receptor expressed in CHO cells relative to motilin
Type: cell-based
One number for each entry.

Recorded results for 3 compounds are shown here.
compound	Intrinsic activity
CC[C@H]1OC(=O)[C@H](C)[C@@H](O[C@H]2C[C@@](C)(OC)[C@@H](O)[C@H](C)O2)[C@H](C)[C@@H](O[C@@H]2O[C@H](C)C[C@H](N(C)C)[C@H]2O)[C@](C)(O)C[C@@H](C)C(=O)[C@H](C)[C@@H](O)[C@]1(C)O [ERYTHROMYCIN]	1.3
C[C@@H]1CN(Cc2ccc(CC(=O)N3CCC(Nc4cccc(F)c4)CC3)cc2)CCN1	0.7
C[C@@H]1CN(Cc2ccc(CCC(=O)N3CCC(Nc4ccc(F)cc4)CC3)cc2)C[C@H](C)N1	0.9

Hi there! I need Intrinsic activity for each item below, if you can.
1. C[C@H]1CN(Cc2ccc(CC(=O)N3CCC(Nc4ccc(F)cc4)CC3)cc2)CCN1
2. C[C@H]1CN(Cc2ccc(CCC(=O)N3CCC(Nc4ccc(F)cc4)CC3)cc2)CCN1
3. C[C@H]1CN(Cc2ccc(CCC(=O)N3CCC(Nc4cccc(F)c4)CC3)cc2)CCN1

Output:
0.8
1.2
1

Hi there! I need Intrinsic activity for each item below, if you can.
1. C[C@H]1CN(Cc2ccc(CC(=O)N3CCC(Nc4cccc(C#N)c4)CC3)cc2)CCN1
2. C[C@@H]1CN(Cc2ccc(CC(=O)N3CCC(Nc4ccc(F)cc4)CC3)cc2)C[C@H](C)N1
3. C[C@@H]1CN(Cc2ccc(C(C)(C)C(=O)N3CCC(Nc4ccc(F)cc4)CC3)cc2)C[C@H](C)N1
4. CC(C(=O)N1CCC(Nc2ccc(F)cc2)CC1)c1ccc(CN2C[C@@H](C)N[C@@H](C)C2)cc1 (stereo partly specified)
5. C[C@H]1CN(Cc2ccc(CC(=O)N3CCC(Nc4cccc(F)c4)CC3)cc2)CCN1

Output:
1. 1.1
2. 0.9
3. 0.7
4. 1.1
5. 0.9
